biological target: Estrogen-related receptor gamma (Homo sapiens, UniProt P62508)
Sequence (P62508 whole entry): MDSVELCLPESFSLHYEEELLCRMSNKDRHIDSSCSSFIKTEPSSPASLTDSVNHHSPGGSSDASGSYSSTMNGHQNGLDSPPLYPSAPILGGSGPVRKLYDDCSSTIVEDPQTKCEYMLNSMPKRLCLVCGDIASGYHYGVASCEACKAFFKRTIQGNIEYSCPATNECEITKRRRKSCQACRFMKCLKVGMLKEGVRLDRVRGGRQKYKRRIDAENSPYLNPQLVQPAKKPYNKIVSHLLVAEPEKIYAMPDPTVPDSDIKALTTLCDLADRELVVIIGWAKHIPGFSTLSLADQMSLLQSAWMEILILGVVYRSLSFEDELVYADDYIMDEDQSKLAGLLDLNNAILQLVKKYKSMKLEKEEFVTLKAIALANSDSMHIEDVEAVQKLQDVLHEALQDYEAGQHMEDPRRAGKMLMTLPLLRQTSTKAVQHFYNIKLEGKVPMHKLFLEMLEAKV
# key: entry, value: IC50
Quantity Name: IC50 (µM)

In [3]: df
Out[3]:
                                         smi  sign  numeric_value
 0  CCN1CCN(c2ccc(/C(=C(/CCCO)c3ccccc3)c3ccc(O)cc3)cc2)CC1     =           0.05
 1  OCCC/C(=C(\c1ccc(O)cc1)c1ccc(N2CCN(C3CCCC3)CC2)cc1)c1ccccc1     =          0.115
 2  OCCC/C(=C(\c1ccc(O)cc1)c1ccc(N2CCN(C3COC3)CC2)cc1)c1ccccc1     =          0.214
 3  CCN1CCN(c2ccc(/C(=C(/CCCO)c3ccccc3)c3ccc(C)cc3)cc2)CC1.Cl.Cl     =          0.025
 4  OCCC/C(=C(\c1ccc(O)cc1)c1ccc(N2CCN(C3CCC3)CC2)cc1)c1ccccc1     =          0.053
 5  N=C(N)N1CCN(c2ccc(/C(=C(/CCCO)c3ccccc3)c3ccc(O)cc3)cc2)CC1     =          0.511
 6  CC(C)N1CCN(c2ccc(/C(=C(/CCCO)c3ccccc3)c3ccc(OS(=O)(=O)C(F)(F)F)cc3)cc2)CC1     =           3.02
 7  CN1CCN(c2ccc(/C(=C(/CCCOC(=O)C(C)(C)C)c3ccccc3)c3ccc(OC(=O)C(C)(C)C)cc3)cc2)CC1     >             10
 8  CN1CCN(c2ccc(/C(=C(/CCCOC(=O)C(C)(C)C)c3ccccc3)c3ccc(O)cc3)cc2)CC1     >             10
 9  CC(=O)Nc1ccc(/C(=C(\CCCO)c2ccccc2)c2ccc(N3CCN(C(C)C)CC3)cc2)cc1     =           4.33
10  CC(C)N1CCN(c2ccc(/C(=C(/CCCO)c3ccccc3)c3ccc(OS(=O)(=O)C4CC4)cc3)cc2)CC1     =           1.36
11  CN1CCN(c2ccc(/C(=C(/CCCO)c3ccccc3)c3ccc(OC(=O)C(C)(C)C)cc3)cc2)CC1     =            2.7
12  CC(C)N1CCN(c2cccc(/C(=C(/CCCO)c3ccccc3)c3ccc(O)cc3)c2)CC1     >             10
13  CC(C)N1CCN(c2ccc(/C(=C(/CCCO)c3ccccc3)c3ccc(NS(=O)(=O)C4CC4)cc3)cc2)CC1     =           3.63
14  CC(C)N1CCN(c2ccc(/C(=C(/CCCO)c3ccccc3)c3ccc(OS(C)(=O)=O)cc3)cc2)CC1     =           2.63
15  OCCC/C(=C(\c1ccc(O)cc1)c1ccc(N2CCN(C3CCCCC3)CC2)cc1)c1ccccc1     =          0.099
16  CC(C)N1CCN(c2cccc(/C(=C(/CCCO)c3ccccc3)c3cccc(O)c3)c2)CC1     =           5.62
17  CN1CCN(c2ccc(/C(=C(/CCCO)c3ccccc3)c3ccc(N)cc3)cc2)CC1     =           0.14
18  CC(C)N1CCN(c2ccc(/C(=C(/CCCO)c3ccccc3)c3ccc(NC(=N)N)cc3)cc2)CC1     >             10
